Source listed as PubChem BioAssay (NCI).

Tested on: SW-620 colon
Procedure text: NCI tumour cell line growth inhibition, 48 h; in the data active = GI50 below about 0.43 µM; inactive = the rest
Select the matching outcome among active, inactive

# Compound, Group label
records = [
    ("CN(C)c1ccc2[nH]c3c(C(N)=O)cc(=O)c(=O)c=3oc2c1", "inactive"),
    ("COC(=O)CC1=C(C)/C(=C/c2[nH]c(-c3ccc[nH]3)cc2OC)N=C1C", "active"),
]

Challenge: Answer briefly: the call reported for CC(=O)[CH-]C(=O)c1ccccc1.CC(=O)[CH-]C(=O)c1ccccc1.CC(=O)[CH-]C(=O)c1ccccc1.[Ga+3] in this assay.
Response given: inactive

Challenge: Answer briefly: the call reported for O=C(Oc1c(Cl)cc(Cl)cc1Cl)c1ccccc1Nc1ccnc(C(F)(F)F)c1 in this assay.
Response given: inactive
